This section presents binders with their documented binding score values.
- system: T1, CaBdf1 BD1 (GST-tagged, wild-type) (Candida albicans (strain SC5314 / ATCC …, UniProt Q5A4W8))
- T1 chain: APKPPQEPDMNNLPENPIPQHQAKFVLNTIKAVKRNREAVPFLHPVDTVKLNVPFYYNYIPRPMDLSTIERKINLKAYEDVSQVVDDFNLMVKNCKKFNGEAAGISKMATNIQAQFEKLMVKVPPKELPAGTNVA
- assay_remarks: histone peptide array (Active Motif MODified), 1 uM GST-tagged bromodomain, anti-GST detection, normalized mean intensity
Square brackets hold non-standard residues; d marks the D form. Ends that are not written are not given here. Arg(Me2a) = CN(C)C(=N)NCCC[C@H](N)C(=O)O; pT = C[C@@H](OP(=O)(O)O)[C@H](N)C(=O)O; Lys(Me2) = CN(C)CCCC[C@H](N)C(=O)O; Lys(Me) = CNCCCC[C@H](N)C(=O)O; Me2a = not defined here

A[Arg(Me2a)]T[Lys(Me)]QTA[Arg(Me2a)][Lys(Me2)]STGGKAPRKQ ... 0.0029
ARTKQTARKSTGGKAPRKQ (A Rme2a T Kme1 Q T A Rme2a Kme3 S T G G K A P R K Q) ... 0.00435
ARTKQTARKSTGGKAPRKQ (A Rme2a T Kac Q T A Rme2s Kme1 S T G G K A P R K Q) ... 0.00471

Query: Find the recorded binding score belonging to AR(Me2a)[pT]KQTARKSTGGKAPRKQ (reading uncertain) and report it.
Response: 0.00181

Query: Value lookup for binding score; key = ARTKQTARKSTGGKAPRKQ (A R T Kme3 Q T A Rme2s Kme1 S T G G K A P R K Q)
Response: 0.00471

Query: So what's the measured binding score for this one? SGRGKGGKGLGKGGAKRHR (S G R G K G G Kac G L G K G G A Kac R H R)
Response: 0.0228

Query: I have this binder here, AR(Me2a)TK(Me3)QTARK(Me2)STGGKAPRKQ (reading uncertain) , and I need its recorded binding score.
Response: 0.00145

Reference source for all entries: paper PMC5454392
